Conditions: in isobutyl acetate, 323.15 K
endpoint label: solubility (mole fraction)

> print(dat)
                         mol              endpoint.label  recorded.number
1  O=C(O)CCCc1c[nH]c2ccccc12  solubility (mole fraction)             0.11

* * *

Conditions: in acetone, 313.15 K
endpoint label: solubility (mole fraction)

> print(dat)
                         mol  result
1  O=C(O)CCCc1c[nH]c2ccccc12   0.339

* * *

Conditions: in n-pentanol, 293.15 K
endpoint label: solubility (mole fraction)

> print(dat)
                         mol  recorded.number
1  O=C(O)CCCc1c[nH]c2ccccc12           0.0486

Cited source for all entries: BigSolDB 2.1
